Provide the recorded TGI for the entries that follow.
Tested on: SK-OV-3 ovarian
Test: NCI tumour cell line growth inhibition, 48 h

Sample records with TGI:
compound	TGI
N#C/C(C(=O)Nc1ccccc1)=C(/N)N1CCCCC1	> 100 µM
Cc1nn(CNc2ccccc2C(F)(F)F)c(=S)n1/N=C/c1ccc(F)cc1	> 100 µM
C=CCc1ccccc1C1CC2(C(=O)OC)OC1C(C(=O)OC)=C2C(=O)OC (stereo not drawn)	> 10 µM
S=P(N1CCCC1)(N1CC1)N1CC1	> 100 µM

List reported TGI for each of these compounds:
1. COc1cc2oc(-c3ccc4c(c3)OCO4)c(OC)c(=O)c2c(O)c1OC
2. C/C=C(/C)c1cnc(CC(C)C)c(=O)[nH]1
3. C[C@]12CCC(=O)C=C1CC[C@@H]1[C@@H]2[C@@H](O)C[C@@]2(C)[C@H]1CC[C@]2(O)C(=O)COC(=O)CCC1CCCC1

result:
> 50 µM
> 100 µM
> 100 µM

Query Nc1ccc(C(=O)CC2(O)C(=O)Nc3c(Cl)cc(Cl)cc32)cc1 (stereo not drawn) yields TGI of > 100 µM
